Taken from paper PMC11579972.

SUBJECT OF TEST: T1, An‐FD, Pro‐Asp‐(Phe‐Asp)5‐Pro
T1 peptide: PDFDFDFDFDFDP
PROCEDURE TEXT: ITC
READOUT: Kd

Any idea what its Kd is? The binder is PKFKFKFKFKFKP [Cat‐FK, Pro‐Lys‐(Phe‐Lys)5‐Pro]
~40 µM
